Measured % Blocking accompanies every entry in the list below.
target: T1, human chemokine (C-C motif) receptor 8 (CCR8) (human, UniProt P51685 1-355); test: flow cytometry blocking, PBMC CCR8+ CD4+ cells; competitor PE-AB3 (its MFI is read)
T1 construct: On human peripheral blood lymphocytes / PBMC (native) or on human CCR8 GFP-transfected Ba/F3 cells; also called hCCR8; human CCR8
T1 sequence (P51685 whole entry): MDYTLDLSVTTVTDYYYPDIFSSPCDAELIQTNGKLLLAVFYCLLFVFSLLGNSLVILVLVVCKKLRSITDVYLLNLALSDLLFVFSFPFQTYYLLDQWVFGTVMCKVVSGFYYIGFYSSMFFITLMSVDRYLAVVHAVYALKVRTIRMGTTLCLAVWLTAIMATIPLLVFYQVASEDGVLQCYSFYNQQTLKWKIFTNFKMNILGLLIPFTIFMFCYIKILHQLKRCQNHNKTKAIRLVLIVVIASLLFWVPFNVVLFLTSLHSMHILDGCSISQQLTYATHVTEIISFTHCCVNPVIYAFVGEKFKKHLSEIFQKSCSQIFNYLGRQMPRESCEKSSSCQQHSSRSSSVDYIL
// return numeric value only (unit: %, not printed)

Known results for binders:
[
  {
    "BINDER": "AB10 (antibody, V domains shown, Hybridoma monoclonal; also called antibody 10; clone 10) VH: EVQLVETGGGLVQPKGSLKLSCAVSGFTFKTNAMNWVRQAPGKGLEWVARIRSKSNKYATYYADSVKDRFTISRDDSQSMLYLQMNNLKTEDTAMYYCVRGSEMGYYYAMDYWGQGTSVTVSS VL: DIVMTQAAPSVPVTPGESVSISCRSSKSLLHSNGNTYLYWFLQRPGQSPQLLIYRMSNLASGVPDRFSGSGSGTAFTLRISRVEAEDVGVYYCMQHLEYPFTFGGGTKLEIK",
    "MEASURED PROPERTY": "% Blocking",
    "ASSAY VALUE": -38.4
  },
  {
    "BINDER": "AB8 (antibody, V domains shown, Hybridoma monoclonal; also called antibody 8; clone 8) VH: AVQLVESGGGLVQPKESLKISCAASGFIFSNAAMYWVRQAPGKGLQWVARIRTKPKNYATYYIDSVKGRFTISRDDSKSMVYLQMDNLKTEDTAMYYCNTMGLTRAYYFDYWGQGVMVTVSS VL: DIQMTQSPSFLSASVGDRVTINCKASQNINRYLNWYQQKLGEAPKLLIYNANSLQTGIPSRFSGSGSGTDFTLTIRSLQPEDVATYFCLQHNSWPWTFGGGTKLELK",
    "MEASURED PROPERTY": "% Blocking",
    "ASSAY VALUE": -43.3
  },
  {
    "BINDER": "AB13 (antibody, V domains shown, Hybridoma monoclonal; also called antibody 13; clone 13) VH: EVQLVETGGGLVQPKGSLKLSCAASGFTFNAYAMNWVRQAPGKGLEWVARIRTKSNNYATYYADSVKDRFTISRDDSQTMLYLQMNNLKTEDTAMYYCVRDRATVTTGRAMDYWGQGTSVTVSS VL: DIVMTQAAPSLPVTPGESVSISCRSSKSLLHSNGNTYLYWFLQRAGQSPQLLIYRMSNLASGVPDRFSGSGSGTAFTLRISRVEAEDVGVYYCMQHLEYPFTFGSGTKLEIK",
    "MEASURED PROPERTY": "% Blocking",
    "ASSAY VALUE": -39.7
  },
  {
    "BINDER": "AB4 (antibody, V domains shown, Hybridoma monoclonal; also called antibody 4; clone 4) VH: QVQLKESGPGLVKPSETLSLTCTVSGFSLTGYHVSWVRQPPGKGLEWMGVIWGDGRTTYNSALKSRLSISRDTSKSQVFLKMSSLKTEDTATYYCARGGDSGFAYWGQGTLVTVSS VL: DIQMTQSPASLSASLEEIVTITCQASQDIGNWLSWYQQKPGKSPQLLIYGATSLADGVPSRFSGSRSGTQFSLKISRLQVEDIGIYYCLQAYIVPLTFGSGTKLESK",
    "MEASURED PROPERTY": "% Blocking",
    "ASSAY VALUE": 48.2
  },
  {
    "BINDER": "AB5 (antibody, V domains shown, Hybridoma monoclonal; also called antibody 5; clone 5) VH: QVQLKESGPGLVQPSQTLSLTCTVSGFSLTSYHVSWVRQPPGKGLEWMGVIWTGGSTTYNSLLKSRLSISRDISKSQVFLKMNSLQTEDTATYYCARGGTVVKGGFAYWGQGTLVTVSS VL: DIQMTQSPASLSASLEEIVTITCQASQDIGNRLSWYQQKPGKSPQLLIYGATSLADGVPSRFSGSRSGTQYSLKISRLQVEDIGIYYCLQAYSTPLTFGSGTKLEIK",
    "MEASURED PROPERTY": "% Blocking",
    "ASSAY VALUE": 47.3
  }
]

Now for another entry.
Prompt: Endpoint output: % Blocking of AB1 (antibody, V domains shown, Hybridoma monoclonal (mice or rats immunised); Used purified and PE-conjugated; also called antibody 1; clone 1) VH: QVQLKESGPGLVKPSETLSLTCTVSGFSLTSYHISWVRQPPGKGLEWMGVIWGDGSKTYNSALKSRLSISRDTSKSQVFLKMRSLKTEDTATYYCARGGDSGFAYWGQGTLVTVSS VL: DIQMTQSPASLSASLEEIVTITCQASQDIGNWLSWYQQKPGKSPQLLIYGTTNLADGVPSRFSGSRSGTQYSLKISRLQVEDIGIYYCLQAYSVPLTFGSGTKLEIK . Value?
Response: 48.3
